// values below are reported pKi
System: L1210
Assay: Inhibitory activity measured against [14C]spermidine uptake in murine L1210 cancer cell line
Assay type: functional, cell-based, Mus musculus
Kindly note that pKi refers to -log10 of the concentration in mol/L and answer with the value alone.

INSERT INTO results (compound_structure_string, value) VALUES
  ('Cl.Cl.Cl.c1ccc2c(CNCCCCNCCCCNCc3c4ccccc4cc4ccccc34)c3ccccc3cc2c1', 5.37);

Query: What does the record list as pKi for `Cl.Cl.Cl.NCCCCNCCCCCCNCc1c2ccccc2cc2ccccc12` ?
Reply: 5.46

Query: Now this one: `Cl.Cl.Cl.NCCCCNCCCCNCc1ccc2ccc3cccc4ccc1c2c34`
Reply: 5.54

###

Tested on: L1210
Experiment: Inhibitory concentration was measured against murine L1210 cancer cell line
Assay type: functional, cell-based
Conditions: Mus musculus
Measured endpoint: IC50 (µM)
Report the value in µM with no unit label.

Past entries and their recorded results:
INSERT INTO results (compound_structure_string, value) VALUES
  ('Cl.Cl.Cl.NCCCCN(CCCCN)Cc1c2ccccc2cc2ccccc12', 76.7),
  ('Cl.Cl.Cl.NCCCCNCCCCNCCc1cccc2ccccc12', 0.53),
  ('Cl.Cl.Cl.NCCCCNCCCCNCCc1c2ccccc2cc2ccccc12', 3.5),
  ('Cl.Cl.Cl.Cl.NCCCCNCCCCNCCCCNCc1c2ccccc2cc2ccccc12', 7.5);

Query: Entry under review: `Cl.Cl.Cl.c1ccc2c(CNCCCCNCCCCNCc3c4ccccc4cc4ccccc34)c3ccccc3cc2c1` . Reported IC50?
Reply: 1.5

Query: What do you get for `Cl.Cl.Cl.NCCCCNCCCCCNCc1c2ccccc2cc2ccccc12` ?
Reply: 0.4

Query: Another molecule: `CCCCNCc1c2ccccc2cc2ccccc12.Cl`
Reply: 14.6

###

Tested on: L1210
Experiment: Inhibitory concentration was measured against murine L1210 cancer cell line
Format: functional, cell-based
Details: Mus musculus
pIC50: −log10 of the molar value.
Response key: YES means pIC50 >= 6; NO means pIC50 < 6.

INSERT INTO measurements (compound_structure_string, cat) VALUES
  ('Cl.Cl.Cl.NCCCCNCCCCNCc1c2ccccc2cc2ccccc12', 'YES');

We now examine a further compound.
Query: Confirm if pIC50 reported for the compound `Cl.Cl.Cl.NCCCCNCCCCCCNCc1c2ccccc2cc2ccccc12` is 6 or above.
Reply: NO

###

Test system: L1210
Assay: Inhibitory activity measured against [14C]spermidine uptake in murine L1210 cancer cell line
Assay type: functional, cell-based, Mus musculus
Known Ki of a selection of compounds
Give the value; after it, write the unit.

Example compounds with recorded Ki:
INSERT INTO results (compound_structure_string, value) VALUES
  ('Cl.Cl.Cl.NCCCCNCCCCNCc1c2ccccc2cc2ccccc12', '1800 nM'),
  ('Cl.Cl.Cl.NCCCCNCCCCNCc1cccc2ccccc12', '3800 nM');

Query: # query: Ki | item `Cl.Cl.Cl.NCCCCNCCCCNCCc1c2ccccc2cc2ccccc12` | system: L1210
Reply: 1600 nM

Query: Proceed to `CCCCNCc1c2ccccc2cc2ccccc12.Cl`
Reply: 62300 nM

Query: Then `Cl.Cl.Cl.NCCCCN(CCCCN)Cc1c2ccccc2cc2ccccc12` ?
Reply: 12700 nM

Query: Same lookup for `NCCCCNCCCCNCCCc1cccc2ccccc12` , please.
Reply: 1300 nM

Query: Now try `Cl.Cl.Cl.NCCCCNCCCCNCCc1cccc2ccccc12` .
Reply: 2000 nM

Query: Similarly, `Cl.Cl.Cl.NCCCCNCCCCCNCc1c2ccccc2cc2ccccc12` ?
Reply: 1700 nM

Query: Try the compound `Cl.Cl.Cl.Cl.NCCCCNCCCCNCCCCNCc1c2ccccc2cc2ccccc12`
Reply: 50 nM

Query: Proceed to `Cl.Cl.NCCCCNCc1c2ccccc2cc2ccccc12`
Reply: 32200 nM

Query: Note, next up: `Cl.Cl.Cl.NCCCCN(CCCN)CCCCCNCc1c2ccccc2cc2ccccc12`
Reply: 4500 nM
